- Test target: hmGluR1 receptor (Homo sapiens, UniProt Q13255)
- Construct: expressed in transfected cells; host or cells: CHO
- Sequence (Q13255 19-1194): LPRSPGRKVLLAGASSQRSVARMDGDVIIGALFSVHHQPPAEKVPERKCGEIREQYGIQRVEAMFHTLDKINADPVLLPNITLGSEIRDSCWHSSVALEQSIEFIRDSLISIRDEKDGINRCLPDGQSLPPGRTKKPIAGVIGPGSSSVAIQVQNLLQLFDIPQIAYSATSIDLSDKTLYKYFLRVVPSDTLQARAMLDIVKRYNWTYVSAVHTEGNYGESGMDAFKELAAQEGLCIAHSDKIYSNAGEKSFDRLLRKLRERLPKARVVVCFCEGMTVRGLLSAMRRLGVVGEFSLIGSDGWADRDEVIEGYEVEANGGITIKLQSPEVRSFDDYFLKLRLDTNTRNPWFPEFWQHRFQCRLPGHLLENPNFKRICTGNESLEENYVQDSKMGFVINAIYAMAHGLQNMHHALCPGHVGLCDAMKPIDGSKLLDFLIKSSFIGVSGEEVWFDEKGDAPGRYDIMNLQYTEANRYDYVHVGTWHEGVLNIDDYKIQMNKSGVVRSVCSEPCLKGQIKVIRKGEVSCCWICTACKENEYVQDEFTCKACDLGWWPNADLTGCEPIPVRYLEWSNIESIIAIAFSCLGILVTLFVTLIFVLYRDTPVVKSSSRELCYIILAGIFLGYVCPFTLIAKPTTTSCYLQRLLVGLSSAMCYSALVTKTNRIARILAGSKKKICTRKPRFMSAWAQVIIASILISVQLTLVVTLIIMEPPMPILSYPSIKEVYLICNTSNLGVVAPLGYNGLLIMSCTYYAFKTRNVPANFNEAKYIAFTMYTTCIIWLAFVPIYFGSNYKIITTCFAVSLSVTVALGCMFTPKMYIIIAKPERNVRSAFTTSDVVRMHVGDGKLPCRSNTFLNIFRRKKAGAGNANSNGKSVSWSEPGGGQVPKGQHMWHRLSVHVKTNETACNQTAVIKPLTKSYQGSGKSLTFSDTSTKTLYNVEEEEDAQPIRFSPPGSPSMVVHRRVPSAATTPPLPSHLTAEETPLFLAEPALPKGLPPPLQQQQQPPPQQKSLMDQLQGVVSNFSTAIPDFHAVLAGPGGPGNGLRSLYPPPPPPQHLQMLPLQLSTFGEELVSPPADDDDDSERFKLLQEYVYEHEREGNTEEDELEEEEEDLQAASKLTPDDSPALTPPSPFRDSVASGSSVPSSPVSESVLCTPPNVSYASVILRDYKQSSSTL
- Assay method text: IC50 Determination: intracellular calcium mobilization (FLIPR) in a CHO cell line stably expressing hmGluR1 receptor, against Quisqualate
- Type: cell-based
- Details: CHO cells expressing hmGluR1; against Quisqualate 1 μM (EC80); compounds added 10 minutes before agonist; read-out: mGluR1 IC50
- Method: A CHO cell line stably expressing hmGluR1 receptor was established. One day prior to assay, cells were split in growth media at concentration of 50,000 cells/well in a volume of 100 μl and seeded into black clear-bottom 96-well plates. […] A 96-tip pipettor/fluorometric imaging plate reader (FLIPR 384; Molecular Devices) was used and intracellular calcium mobilization was measured by increases in fluorescence upon agonist Quisqualate stimulation following 6 sec-baseline measurement. […]
pIC50: −log10 of the molar value.
Measured pIC50 by item

Compound	pIC50
COc1ccc(-n2cnc3c(sc4ncc5cc[nH]c5c43)c2=O)cc1 [Compound 27b]	8.31
C[C@H]1COc2cnc3sc4c(=O)n(-c5ccc(Cl)cc5)cnc4c3c2N1 [Compound 38e]	7.92
Cc1ccc(-n2cnc3c(sc4ncc5cc[nH]c5c43)c2=O)cc1 [Compound 27a]	9.15
Cc1ccc(-n2cnc3c(sc4ncc5c(c43)NC[C@@H](C)O5)c2=O)cc1 [Compound 38g]	8.28
O=c1c2sc3ncc4cn[nH]c4c3c2ncn1-c1ccc(Cl)cc1 [Compound 20a]	7.42
O=c1c2sc3ncc(Br)c(NCCO)c3c2ncn1-c1ccc(Cl)cc1 [Compound 37a]	7.85
COc1ccc(-n2cnc3c(sc4ncc5c(c43)NCCO5)c2=O)cc1 [Compound 38i]	8.60
Cc1ccc(-n2cnc3c(sc4ncc5c(c43)NCCO5)c2=O)cc1 [Compound 38h]	8.66
C[C@H]1CNc2c(cnc3sc4c(=O)n(-c5ccc(Cl)cc5)cnc4c23)O1 [Compound 38c]	8.66
O=c1c2sc3ncc4nc[nH]c4c3c2ncn1C1CCCCC1	7.64
O=c1c2sc3ncc4c(c3c2ncn1-c1ccc(Cl)cc1)NCCO4 [Compound 38a]	8.54
Cc1ccc(-n2cnc3c(sc4ncc5c(c43)N(C)CCO5)c2=O)cc1 [Compound 38f]	8.24
Cc1ccc(-n2cnc3c(sc4ncc5cn[nH]c5c43)c2=O)cc1 [Compound 20b]	7.77

Origin of the recorded values: patent US7482360B2
